Listed below: T1/2 values for each entry.
# assay-name: Binding affinity to pBS plasmid 117 base-pair DNA fragment assessed as half life of DNA alkylation by gel shift assay
The figure you give is taken to be in h; do not add the unit.

# count of solved cases: 5
- compound: "COc1cc2c(c3c1c(=O)c1cc4ccccc4cc1n3C)[C@@H](O)[C@@H](OC(=O)/C=C/c1ccccc1)C(C)(C)O2 (racemic)"
  T1/2 / h: 0.333
- compound: "COc1cc2c(c3c1c(=O)c1cc4ccccc4cc1n3C)[C@@H](O)[C@@H](OC(C)=O)C(C)(C)O2 (racemic)"
  T1/2 / h: 0.0833
- compound: "COc1cc2c(c3c1c(=O)c1cc4ccccc4cc1n3C)[C@@H](OC(C)=O)[C@@H](OC(C)=O)C(C)(C)O2 (racemic)"
  T1/2 / h: 0.5
- compound: "COc1cc2c(c3c1c(=O)c1cc4ccccc4cc1n3C)[C@@H](O)[C@@H](OC(=O)/C=C/c1ccc(Cl)cc1)C(C)(C)O2 (racemic)"
  T1/2 / h: 1
- compound: "COc1cc2c(c3c1c(=O)c1cc4ccccc4cc1n3C)[C@@H](O)[C@@H](OC(=O)/C=C/c1ccc(Cl)c(Cl)c1)C(C)(C)O2 (racemic)"
  T1/2 / h: 1

Challenge: // lookup T1/2 for COc1cc2c(c3c1c(=O)c1cc4ccccc4cc1n3C)[C@@H](O)[C@@H](OC(=O)/C=C/c1ccc(Br)cc1)C(C)(C)O2 (racemic)
Response given: 1

Challenge: // lookup T1/2 for COc1cc2c(c3c1c(=O)c1cc4ccccc4cc1n3C)[C@@H](OC(C)=O)[C@@H](OC(=O)/C=C/c1ccccc1)C(C)(C)O2 (racemic)
Response given: 1.5

Challenge: // lookup T1/2 for COc1cc2c(c3c1c(=O)c1cc4ccccc4cc1n3C)[C@@H](OC(C)=O)[C@@H](OC(=O)/C=C/c1ccc(Br)cc1)C(C)(C)O2 (racemic)
Response given: 6

Challenge: // lookup T1/2 for COc1cc2c(c3c1c(=O)c1cc4ccccc4cc1n3C)[C@@H](OC(C)=O)[C@@H](OC(=O)/C=C/c1ccc(Cl)cc1)C(C)(C)O2 (racemic)
Response given: 6

These measurements were taken from ChEMBL document CHEMBL1152763.
